test: recombinant barcode read abundance after kanamycin selection (control-corrected) (log10(CPM+1)); higher = more efficient recombination; sequences stand for … in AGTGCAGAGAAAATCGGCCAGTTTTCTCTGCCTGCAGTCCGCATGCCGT…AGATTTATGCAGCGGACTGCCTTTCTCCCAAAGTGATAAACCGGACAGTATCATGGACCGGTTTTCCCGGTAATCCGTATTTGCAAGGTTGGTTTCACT; site = the 11-nt target;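 note: IS621 recombinase and bridge RNA in Escherichia coli cells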
Is recombinant barcode read abundance (log10) at least 0.05? Then YES. If not, NO.

>  <CHAIN SEQUENCE>
CTATAGGCTTGGGTTCTAACCTGTTGCCT (site CTATAGGCTAG)

>  <ASSIGNED CLASS>
YES

$$$$
>  <CHAIN SEQUENCE>
CATGATGCTTGGGTTCTAACCTGTTGCCT (site CAAGATGCTAG)

>  <ASSIGNED CLASS>
YES

$$$$
>  <CHAIN SEQUENCE>
CGCGCAGCTTGGGTTCTAACCTGTTGCCT (site CGTGCAGCTAG)

>  <ASSIGNED CLASS>
YES

$$$$
>  <CHAIN SEQUENCE>
GCCGTAGCTTGGGTTCTAACCTGTTGCCT (site GACGTAGCTAG)

>  <ASSIGNED CLASS>
YES

$$$$
>  <CHAIN SEQUENCE>
CGTATATCTTGGGTTCTAACCTGTTGCCT (site CGTATATCTAG)

>  <ASSIGNED CLASS>
NO

$$$$
